tested on: TNF-α secretion from peripheral blood mononuclear cells (PBMCs); test: TNF-α secretion from PBMCs stimulated by LPS; format: cell-based, human; conditions: Homo sapiens, PBMC; PBMCs stimulated by LPS; read-out: TNF-α secretion IC50
outcome measure: IC50

smiles input	observed value
N#Cc1ccc(Oc2ccc3c(c2)COB3O)cc1C#N	160 nM

Could you now look at the following compound, please?
# query: IC50 of entry "N#Cc1ccc(Oc2ccc3c(c2)COB3O)cc1"
770 nM

---

# key: entry, value: pIC50
test system: TNF-α; test: Cytokine assay, TNF-α release from PBMC; assay type: cell-based; details: Homo sapiens, PBMC, 24 h, 1 μg/mL LPS, supernatant at 24 hours
pIC50: −log10 of the molar value. Structures can show the parent of a compound that is named as a salt.

# query: pIC50 of entry "CCOC(=O)c1cc(F)c(Oc2ccc3c(c2)COB3O)c(F)c1"
< 5.00

# query: pIC50 of entry "COC(=O)c1ccc(Oc2ccc3c(c2)COB3O)nc1C(=O)OC"
> 6.00

# query: pIC50 of entry "COCCNc1nc(Oc2ccc3c(c2)COB3O)ccc1C#N"
> 6.00

# query: pIC50 of entry "N#Cc1ccc(Oc2ccc3c(c2)COB3O)cc1O"
> 6.00

# query: pIC50 of entry "CC(C)OC(=O)c1ccc(Oc2ccc3c(c2)COB3O)cc1"
5.40 to 6.00

# query: pIC50 of entry N#Cc1ccc(Oc2ccc3c(c2)COB3O)cc1Cl [D2]
> 6.00

# query: pIC50 of entry "N#Cc1ccc(Oc2ccc3c(c2)COB3O)c(CNC=O)c1"
5.00 to 5.40

# query: pIC50 of entry "COc1ccc(C#N)c(Oc2ccc3c(c2)COB3O)n1"
> 6.00

# query: pIC50 of entry "N#Cc1ccc(Oc2ccc3c(c2)COB3O)nc1OCC(F)(F)F"
> 6.00

# query: pIC50 of entry "O=C(NCCO)c1ccc(Oc2ccc3c(c2)COB3O)cc1"
< 5.00

# query: pIC50 of entry "CCOC(=O)COc1cc(C#N)ccc1Oc1ccc2c(c1)COB2O"
> 6.00

# query: pIC50 of entry "CCOC(=O)c1ccc(Oc2ccc3c(c2)COB3O)cc1OC"
> 6.00

# query: pIC50 of entry CN1CCN(C(=O)COc2cc(C#N)ccc2Oc2ccc3c(c2)COB3O)CC1 [D29, hydrochloride]
> 6.00

# query: pIC50 of entry "CCOc1cc(Oc2ccc3c(c2)COB3O)ccc1C#N"
> 6.00

# query: pIC50 of entry "N#Cc1cnc(Oc2ccc3c(c2)COB3O)cc1OCCO"
> 6.00

# query: pIC50 of entry "N#Cc1ccc(Oc2ccc3c(c2)COB3O)c(C=O)c1"
5.00 to 5.40

# query: pIC50 of entry "CCOc1nc(Oc2ccc3c(c2)COB3O)ccc1C#N"
> 6.00

# query: pIC50 of entry "COC(=O)c1ccc(Oc2ccc3c(c2)COB3O)c(F)c1"
> 6.00

# query: pIC50 of entry "N#Cc1ccc(NCCO)nc1Oc1ccc2c(c1)COB2O"
> 6.00

---

system: TNF-α; test: Cytokine assay, TNF-α release from PBMC; format: cell-based; details: Homo sapiens, PBMC, 24 h, 1 μg/mL LPS, supernatant at 24 hours
# key: entry, value: IC50

compound	target of assay	outcome measure	observed value
N#Cc1c(Cl)cccc1Oc1ccc2c(c1)COB2O	TNF-α	IC50	4000 to 10000 nM
N#Cc1ccc(Oc2ccc3c(c2)COB3O)c(CO)c1	TNF-α	IC50	1000 to 4000 nM
CCOC(=O)c1ccc(Oc2ccc3c(c2)COB3O)c(C(F)(F)F)c1	TNF-α	IC50	< 1000 nM
CCOC(=O)c1ccc(Oc2ccc3c(c2)COB3O)c(O)c1	TNF-α	IC50	1000 to 4000 nM
COc1cc(Oc2ccc3c(c2)COB3O)ccc1C(=O)O	TNF-α	IC50	> 10000 nM
O=C(O)c1ccc(Oc2ccc3c(c2)COB3O)c(O)c1	TNF-α	IC50	> 10000 nM

# value lookup — system TNF-α, readout IC50, item "CC(=O)Oc1cc(Oc2ccc3c(c2)COB3O)ccc1C#N"
< 1000 nM

# value lookup — system TNF-α, readout IC50, item "CCOC(=O)c1cc(Cl)c(Oc2ccc3c(c2)COB3O)cc1F"
1000 to 4000 nM

# value lookup — system TNF-α, readout IC50, item "O=C(NCc1ccccc1)c1ccc(Oc2ccc3c(c2)COB3O)cc1"
1000 to 4000 nM

# value lookup — system TNF-α, readout IC50, item "CCCOc1nc(Oc2ccc3c(c2)COB3O)ccc1C#N"
< 1000 nM

# value lookup — system TNF-α, readout IC50, item "CNc1nc(Oc2ccc3c(c2)COB3O)ccc1C#N"
< 1000 nM

# value lookup — system TNF-α, readout IC50, item "COC(=O)c1cc(Oc2ccc3c(c2)COB3O)ccc1C#N"
< 1000 nM

---

Test system: IL-5
Assay: Cytokine assay, IL-5 release from PBMC
Assay type: cell-based
Settings: human PBMC, 20 ug/mL PHA, supernatant at 48 hours
Protocol: The ability of the compounds described herein to inhibit pro-inflammatory cytokines or phsophodiesterases were tested. Frozen human peripheral blood mononucleocytes (PBMC) were thawed and centrifuged. Cryopreservation media was aspirated off of the cell pellet, and the cells were resuspended in fresh culture media (CM) comprising RPMI 1640 and 10% FBS in 96 well plates. Test article was dissolved in DMSO to form a 10 mM sample (DMSO, 100%). […]
pIC50: −log10 of the molar value.
outcome measure: pIC50

Example entries and their recorded answers appear below.
smiles input	pIC50
COc1ccc(Oc2ccc3c(c2)B(O)OC3)cc1	< 5.00
CN(CCO)c1nc(Oc2ccc3c(c2)COB3O)ccc1C#N	> 6.00
CC(=O)Oc1cc(Oc2ccc3c(c2)COB3O)ccc1C#N	5.00 to 5.40

# query: pIC50 of entry "CCOc1nc(Oc2ccc3c(c2)COB3O)ccc1C#N"
> 6.00

# query: pIC50 of entry "N#Cc1ccc(Oc2ccc3c(c2)COB3O)cc1OCC(=O)N1CCOCC1"
5.40 to 6.00

# query: pIC50 of entry "N#Cc1cnc(Oc2ccc3c(c2)COB3O)c(O)c1"
5.40 to 6.00

# query: pIC50 of entry "COCCOc1nc(Oc2ccc3c(c2)COB3O)ccc1C#N"
> 6.00

# query: pIC50 of entry "CCOC(=O)c1ccc(Oc2ccc3c(c2)COB3O)cc1Cl"
> 6.00

# query: pIC50 of entry "N#Cc1ccc(Oc2ccc3c(c2)COB3O)c(F)c1"
5.00 to 5.40

# query: pIC50 of entry "N#Cc1c(Cl)cccc1Oc1ccc2c(c1)COB2O"
5.40 to 6.00

# query: pIC50 of entry "CC(C)Oc1nc(Oc2ccc3c(c2)COB3O)ccc1C#N"
> 6.00

# query: pIC50 of entry "N#Cc1ccc(Oc2ccc3c(c2)COB3O)cc1O"
5.00 to 5.40

---

tested on: IL-10; experiment: Cytokine assay, IL-10 release from PBMC; format: cell-based; settings: human PBMC, 20 ug/mL PHA, supernatant at 48 hours
# key: entry, value: IC50

smiles input	IC50
N#Cc1ccc(Oc2ccc3c(c2)COB3O)c(CNC=O)c1	1 to 4 µM
CCN(CC)C(=O)c1ccc(Oc2ccc3c(c2)COB3O)nc1	1 to 4 µM
N#Cc1ccc(Oc2ccc3c(c2)COB3O)c(Cl)c1	> 10 µM
N#Cc1ccc(Oc2ccc3c(c2)COB3O)nc1N1CCOCC1	1 to 4 µM
N#Cc1ccc(Oc2ccc3c(c2)COB3O)nc1N	< 1 µM

Could you now look at the following compound, please?
# query: IC50 of entry "CN(CCO)c1nc(Oc2ccc3c(c2)COB3O)ccc1C#N"
4 to 10 µM

---

# key: entry, value: inhibition in vivo at 0.06 mg
tested on: CD-1 (Crl.) derived male mice; experiment: Phorbol Ester Induced Mouse Ear Edema Model; format: in vivo; conditions: topical, 6 h, 0.06 mg/ear × 2 topical, 95% Ethanol, ear swelling 6 hours after PMA

compound	observed value
CNc1nc(Oc2ccc3c(c2)COB3O)ccc1C#N [D110]	< 30%
CN(CCO)c1ccc(C#N)c(Oc2ccc3c(c2)COB3O)n1 [D98]	< 30%
CN(C)c1nc(Oc2ccc3c(c2)COB3O)ccc1C#N [D95]	< 30%

Could you now look at the following compound, please?
# value lookup — system CD-1 (Crl.) derived male mice, readout inhibition in vivo at 0.06 mg, item CCOc1nc(Oc2ccc3c(c2)COB3O)ccc1C#N [D107]
< 30%

---

system: CD-1 (Crl.) derived male mice; test: Phorbol Ester Induced Mouse Ear Edema Model; assay type: in vivo; settings: topical, 6 h, 1 mg/ear × 2 topical, vehicle not given, ear swelling 6 hours after PMA
# key: entry, value: inhibition in vivo at 1 mg

molecule	target of assay	inhibition in vivo at 1 mg
N#Cc1ccc(Oc2ccc3c(c2)COB3O)cc1C#N	CD-1 (Crl.) derived male mice	60 to 90%

# value lookup — system CD-1 (Crl.) derived male mice, readout inhibition in vivo at 1 mg, item "CCCOC(=O)c1ccc(Oc2ccc3c(c2)COB3O)cc1"
30 to 60%

# value lookup — system CD-1 (Crl.) derived male mice, readout inhibition in vivo at 1 mg, item "N#Cc1ccc(Oc2ccc3c(c2)COB3O)cc1"
60 to 90%

# value lookup — system CD-1 (Crl.) derived male mice, readout inhibition in vivo at 1 mg, item C[C@@H]1C[C@H]2[C@@H]3CCC4=CC(=O)C=C[C@]4(C)[C@@]3(F)[C@@H](O)C[C@]2(C)[C@@]1(O)C(=O)CO [dexamethasone, reference compound]
60 to 90%

# value lookup — system CD-1 (Crl.) derived male mice, readout inhibition in vivo at 1 mg, item "O=Cc1ccc(Oc2ccc3c(c2)COB3O)nc1"
30 to 60%
